# TESTED_ON: CD137 (UniProt Q07011 24-255, limits assumed)
# Sequence (Q07011 24-255 limits assumed): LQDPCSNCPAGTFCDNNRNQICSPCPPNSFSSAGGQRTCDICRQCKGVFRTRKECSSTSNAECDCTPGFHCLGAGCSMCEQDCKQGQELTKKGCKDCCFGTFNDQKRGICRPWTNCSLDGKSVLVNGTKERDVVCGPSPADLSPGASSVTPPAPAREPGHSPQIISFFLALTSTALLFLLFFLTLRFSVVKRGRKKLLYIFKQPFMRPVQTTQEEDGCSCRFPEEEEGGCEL
# ASSAY_METHOD_TEXT: cell-based or functional assay
OBSERVATION_TYPE: Fold improvement in EC50 over BCY10000 on same plate (fold)

BINDER	UNIT_ABBREV	READOUT_NUMBER
BCY12578 (Ac-C[tBuAla]PE[D-Lys(PYA)]PYCFADPY[Nle]CA; Cys residues bonded to TATA scaffold; [3-mercaptopropionic acid]P[1Nal][dK]CM[HArg]DWSTP[HyP]W[Cysteamine]; reactive groups bonded to TATA scaffold) peptide 1: XXKCMXDWSTPXX peptide 2: CXPEXPYCFADPYXCA	fold	0.05
